Tested on: ITK;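 note: KINOMEscan kinase panel screen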
Settings: concentration: 1 μM,replicates: in singlicate; n = 1
parameter-measured: %Inh (%)
Use % as the unit, but write only the number.

Illustrative cases are given below, each with its answer.
Cn1ccc2ncnc(Oc3ccc(NC(=O)Nc4ccnc(C(F)(F)F)c4)c(Cl)c3)c21 :: 0
Cn1ccc2ncnc(Oc3ccc(NC(=O)Nc4cncc(C(F)(F)F)c4)c(Cl)c3)c21 :: 0
CC(C)c1nc(-c2cccc(NS(=O)(=O)c3ccccc3)c2)c(-c2ccnc(Nc3ccc4c(c3)CN(C)CC4)n2)s1 :: 47

Entry CS(=O)(=O)c1cccc(CNc2nc(Nc3ccc4c(c3)[C@@H]3C[C@@H]4CNC3=O)ncc2C(F)(F)F)c1 , %Inh reported as 49
